The origin of these recorded values is the supplement of paper PMC11061612.

Would you mind telling me the reported Bliss excess of each entry?
Test system: RH-1 (Ewing's Sarcoma);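 further: after 72 h of two-drug dosing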
test_name: Bliss excess, mean over the matrix (fraction); higher = more synergy
Respond using a number only.

Given C[C@@H]1COCCN1c1cc(C2([S@](C)(=N)=O)CC2)nc(-c2ccnc3[nH]ccc23)n1 [AZD6738] + O=C(c1cc(Cc2n[nH]c(=O)c3ccccc23)ccc1F)N1CCN(C(=O)C2CC2)CC1 [Olaparib] (first compound max 10 µM, 7x7, partner max 10 µM) , state its recorded Bliss excess.
0.0873

Moving on to the next compound: CC(=O)c1c(C)c2cnc(Nc3ccc(N4CCNCC4)cn3)nc2n(C2CCCC2)c1=O [Palbociclib] + CC1(C)CCC(CN2CCN(c3ccc(C(=O)NS(=O)(=O)c4ccc(NCC5CCOCC5)c([N+](=O)[O-])c4)c(Oc4cnc5[nH]ccc5c4)c3)CC2)=C(c2ccc(Cl)cc2)C1 [Venetoclax] (first compound max 10 µM, 7x7, partner max 1 µM)
0.0175

Lookup Cc1cc2ncnn2cc1Nc1ncc2c(n1)n(C1CCOCC1)c(=O)n2C [AZD7648] + C=CCn1c(=O)c2cnc(Nc3ccc(N4CCN(C)CC4)cc3)nc2n1-c1cccc(C(C)(C)O)n1 [AZD1775] (first compound max 10 µM, partner max 1 µM)
0.016

Field entry: CN(CCO)CC[C@H](CSc1ccccc1)Nc1ccc(S(=O)(=O)NC(=O)c2ccc(N3CCC([C@@H](O)c4ccccc4-c4ccc(Cl)cc4)CC3)cc2)cc1S(=O)(=O)C(F)(F)F [AZD4320] + C=CCn1c(=O)c2cnc(Nc3ccc(N4CCN(C)CC4)cc3)nc2n1-c1cccc(C(C)(C)O)n1 [AZD1775] (first compound max 1 µM, partner max 1 µM)
0.0413

Record: Cc1c2c(nn1C)CSCc1cc(n(C)n1)CSc1cc(c3ccccc3c1)OCCCc1c(C(=O)O)n(C)c3c-2c(Cl)ccc13 [AZD5991] + C1CN(CCC1(C(=O)N[C@@H](CCO)C2=CC=C(C=C2)Cl)N)C3=NC=NC4=C3C=CN4 [Capivasertib] (first compound max 1 µM, 7x7, partner max 3 µM)
0.0157

Entry CCN(CCO)CCCOc1ccc2c(Nc3cc(CC(=O)Nc4cccc(F)c4)[nH]n3)ncnc2c1 [AZD2811] + O=C(c1cc(Cc2n[nH]c(=O)c3ccccc23)ccc1F)N1CCN(C(=O)C2CC2)CC1 [Olaparib] (first compound max 1 µM, 7x7, partner max 10 µM) please
-0.0451

Same read-out for Cc1cc2ncnn2cc1Nc1ncc2c(n1)n(C1CCOCC1)c(=O)n2C [AZD7648] + C[C@@H]1COCCN1C2=NC(=NC(=C2)C3(CC3)[S@](=N)(=O)C)C4=C5C=CNC5=NC=C4 [AZD6738] (first compound max 10 µM, 7x7, partner max 10 µM) ?
-0.0016

How about Cc1cc2ncnn2cc1Nc1ncc2c(n1)n(C1CCOCC1)c(=O)n2C [AZD7648] + CN(C)CCCOc1ccc(-c2ccc3ncc4c(c3c2)n(C2CCOCC2)c(=O)n4C)cn1 [AZD0156] (first compound max 10 µM, 7x7, partner max 1 µM) ?
0.0087

----------
Exercise: state measured combination Emax for each of the compounds provided.
Test system: SNU-C5 (Colorectal Carcinoma)
test_name: combination Emax (second highest fraction inhibited in the dose matrix, 72 h); higher = more inhibition; extreme values may be limits of the assay
Reply briefly: the number, and no unit.

Any idea what its combination Emax is? The compound is CC1(C)CCC(CN2CCN(c3ccc(C(=O)NS(=O)(=O)c4ccc(NCC5CCOCC5)c([N+](=O)[O-])c4)c(Oc4cnc5[nH]ccc5c4)c3)CC2)=C(c2ccc(Cl)cc2)C1 [Venetoclax] + CCN(CCO)CCCOc1ccc2c(Nc3cc(CC(=O)Nc4cccc(F)c4)[nH]n3)ncnc2c1 [AZD2811] (first compound max 1 µM, 7x7, partner max 1 µM)
0.19

Please do the same for NC1(C(=O)N[C@@H](CCO)c2ccc(Cl)cc2)CCN(c2ncnc3[nH]ccc23)CC1 [Capivasertib] + CC(=O)c1c(C)c2cnc(Nc3ccc(N4CCNCC4)cn3)nc2n(C2CCCC2)c1=O [Palbociclib] (first compound max 10 µM, 7x7, partner max 10 µM) as well.
0.567

Also COc1cccc(OCCCN)c1-c1cc(Nc2cnc(C#N)cn2)n[nH]1 [Prexasertib] + C[C@@H]1COCCN1C2=NC(=NC(=C2)C3(CC3)[S@](=N)(=O)C)C4=C5C=CNC5=NC=C4 [AZD6738] (first compound max 1 µM, 7x7, partner max 10 µM) ?
0.894

Same for CC(=O)c1c(C)c2cnc(Nc3ccc(N4CCNCC4)cn3)nc2n(C2CCCC2)c1=O [Palbociclib] + Cc1c2c(nn1C)CSCc1cc(n(C)n1)CSc1cc(c3ccccc3c1)OCCCc1c(C(=O)O)n(C)c3c-2c(Cl)ccc13 [AZD5991] (first compound max 10 µM, 7x7, partner max 1 µM)
0.35

Same for Cn1cnc2c(F)c(Nc3ccc(Br)cc3Cl)c(C(=O)NOCCO)cc21 [Selumetinib] + CCN(CCO)CCCOc1ccc2c(Nc3cc(CC(=O)Nc4cccc(F)c4)[nH]n3)ncnc2c1 [AZD2811] (first compound max 10 µM, 7x7, partner max 1 µM)
0.436

And what about the compound C=CCn1c(=O)c2cnc(Nc3ccc(N4CCN(C)CC4)cc3)nc2n1-c1cccc(C(C)(C)O)n1 [AZD1775] + O=C(c1cc(Cc2n[nH]c(=O)c3ccccc23)ccc1F)N1CCN(C(=O)C2CC2)CC1 [Olaparib] (first compound max 1 µM, partner max 10 µM) ?
0.567

Entry COc1nnc2ccc(N3CCC(c4ccc(OCCN5CCN(C)C(=O)[C@H]5C)cc4)CC3)nn12 [AZD5153] + CN(CC[C@H](CSC1=CC=CC=C1)NC2=C(C=C(C=C2)S(=O)(=O)NC(=O)C3=CC=C(C=C3)N4CCC(CC4)[C@H](C5=CC=CC=C5C6=CC=C(C=C6)Cl)O)S(=O)(=O)C(F)(F)F)CCO [AZD4320] (first compound max 1 µM, 7x7, partner max 1 µM) please
0.569

Next record, please: Cc1c2c(nn1C)CSCc1cc(n(C)n1)CSc1cc(c3ccccc3c1)OCCCc1c(C(=O)O)n(C)c3c-2c(Cl)ccc13 [AZD5991] + CC1(C)CCC(CN2CCN(c3ccc(C(=O)NS(=O)(=O)c4ccc(NCC5CCOCC5)c([N+](=O)[O-])c4)c(Oc4cnc5[nH]ccc5c4)c3)CC2)=C(c2ccc(Cl)cc2)C1 [Venetoclax] (first compound max 1 µM, 7x7, partner max 1 µM)
0.204

Another: CN(C)CCCOc1ccc(-c2ccc3ncc4c(c3c2)n(C2CCOCC2)c(=O)n4C)cn1 [AZD0156] + C[C@@H]1COCCN1C2=NC(=NC(=C2)C3(CC3)[S@](=N)(=O)C)C4=C5C=CNC5=NC=C4 [AZD6738] (first compound max 1 µM, 7x7, partner max 10 µM)
0.807

// same read-out, input: Cc1c2c(nn1C)CSCc1cc(n(C)n1)CSc1cc(c3ccccc3c1)OCCCc1c(C(=O)O)n(C)c3c-2c(Cl)ccc13 [AZD5991] + CCN(CCO)CCCOc1ccc2c(Nc3cc(CC(=O)Nc4cccc(F)c4)[nH]n3)ncnc2c1 [AZD2811] (first compound max 1 µM, 7x7, partner max 1 µM)
0.288
